- assay.method.text: gradient 5% acetonitrile 3 min, to 50% in 2 min, to 85% in 15 min, held 3 min, 100 µL/min
- cond: column: Zorbax Extend-C18 2.1 x 50 mm; eluents: water / acetonitrile, 0.1% formic acid
experimental.readout: RP-LC retention time (s)

molecule="CCc1nncn1C1CCN(C(=O)Nc2ccc(Cl)cc2F)C1 (stereo not given)" reading=638
molecule=O=c1n(Cc2cccc(F)c2)nc2ccc(S(=O)(=O)N3CCc4ccccc4C3)cn12 reading=987
molecule=O=C(Cn1ccnc1-c1ccnc(N2CCCC2)c1)NC1CCCCC1 reading=595
molecule="CC(C)OC(=O)c1ncoc1-c1ccccc1C(=O)NCC1CCCO1 (stereo not given)" reading=676
molecule=CCOC(=O)N1CCN(C(=O)CCc2cc3cc(OC)ccc3[nH]c2=O)CC1 reading=662
molecule=COc1ccc(CNC(=O)Cn2c(=O)cc(-c3nc(C)no3)c3ccccc32)cc1OC reading=746
molecule=Cc1cccnc1NC(=O)Nc1c[nH]c2ccccc12 reading=826
molecule=O=C(c1cccc(Br)c1)N1CCN(c2cc(-c3cccs3)[nH]n2)CC1 reading=837
molecule=O=C(NCc1ccc(F)c(Cl)c1)c1cn2ccccc2n1 reading=723
molecule="CCC1Oc2ccc(S(=O)(=O)N3CCC(C(=O)NCc4cccs4)CC3)cc2NC1=O (stereo not given)" reading=807

----------
- assay.method.text: gradient 5% acetonitrile 3 min, to 50% in 2 min, to 85% in 15 min, held 3 min, 100 µL/min
- cond: column: Zorbax Extend-C18 2.1 x 50 mm; eluents: water / acetonitrile, 0.1% formic acid
experimental.readout: RP-LC retention time (s)

molecule=CN(Cc1cccnc1Oc1ccccc1)C(=O)c1cnccn1 reading=691
molecule=COc1cc(C(=O)Nc2ncc(Cc3cccc4ccccc34)s2)cc(OC)c1OC reading=1030
molecule=CCn1nc(C)c(-c2cc(C(=O)O)[nH]n2)c1C reading=589
molecule=COc1ccccc1-n1ccn(Cc2nc(-c3ccc(Cl)cc3)no2)c(=O)c1=O reading=874
molecule=O=C(NC1CCCCCC1)c1nc(-c2ccnc(N3CCCCC3)c2)no1 reading=883
molecule=CCCC(=O)Nc1ccc2c(c1)nc(CN1CCN(S(C)(=O)=O)CC1)n2CC reading=608
molecule="CC(C)NC(=O)C1CCN(S(C)(=O)=O)c2cc(Cl)ccc2O1 (stereo not given)" reading=777
molecule=CC(C)CNC(=O)c1ccc(CN2CCN(Cc3ccc(F)cc3)C(=O)C2=O)cc1 reading=732
molecule=COc1ccc(C)cc1Nc1ncnc(N)c1[N+](=O)[O-] reading=780
molecule="O=C(NC1CCCC1)C1CCCN(S(=O)(=O)c2c[nH]c(C(=O)N3CCCCCC3)c2)C1 (stereo not given)" reading=784
molecule="CCC(c1cccs1)N1C(=O)[C@H]2CN(S(=O)(=O)c3ccc(C)cc3C)C[C@H]2C1=O (stereo not given in full)" reading=842
molecule=O=C(c1cccn1-c1nnc(N2CCOCC2)s1)N1CCCCCC1 reading=747
molecule=CCCCNC(=O)c1cc(NS(=O)(=O)c2c(C)cc(C)cc2C)cnc1N1CCNCC1 reading=661
molecule=O=C(Cc1ccccc1F)N1C[C@H]2CNC(=O)[C@]23CCCC[C@@H]13 reading=683
molecule=O=c1c(S(=O)(=O)N2CCCCCC2)cccn1Cc1cc(F)cc(F)c1 reading=999
molecule=Cc1ccccc1-c1noc(CCc2nnc3ccc(N4CCOCC4)nn23)n1 reading=782
molecule=COc1ccccc1-c1coc2cc(OC(=O)c3cccs3)ccc2c1=O reading=992
molecule=CCc1nc(NCc2ccc3c(c2)OCO3)ncc1C(=O)O reading=766
molecule=Cc1ccc(C)c(NC(=O)CN2CCC(c3nc(-c4cccs4)no3)CC2)c1 reading=724
molecule="Cc1ccccc1-c1cc(C(=O)N2CCC(NC(=O)C3CCC(C)CC3)CC2)[nH]n1 (stereo not given)" reading=811

Data provenance: the METLIN SMRT retention time set (Domingo-Almenara et al. 2019)
